Note that class boundaries on boiling point are low bracket (below 100 °C), middle bracket (100 °C to below 200 °C), high bracket (200 °C or more)

{"COMPOUND": "CCOC(=O)c1ccccc1C", "CLASS ASSIGNMENT": "high bracket"}
{"COMPOUND": "NCCNCCO", "CLASS ASSIGNMENT": "high bracket"}
{"COMPOUND": "FC(F)(F)C(Cl)(Cl)C(Cl)(Cl)C(F)(F)F", "CLASS ASSIGNMENT": "middle bracket"}
{"COMPOUND": "CCOC(=O)c1cccc(OC)c1", "CLASS ASSIGNMENT": "high bracket"}
{"COMPOUND": "FC(F)(F)C(F)(F)C(F)(F)C(F)(F)C(F)(F)C(F)(F)F", "CLASS ASSIGNMENT": "low bracket"}
{"COMPOUND": "CC1=C(C)CCC1", "CLASS ASSIGNMENT": "middle bracket"}
{"COMPOUND": "CC(C)CC(=O)Cl", "CLASS ASSIGNMENT": "middle bracket"}
{"COMPOUND": "CCCCCCCCCCCCCCC(C)O (configuration not stated)", "CLASS ASSIGNMENT": "high bracket"}
{"COMPOUND": "CCCCCCCCCc1ccccc1", "CLASS ASSIGNMENT": "high bracket"}
{"COMPOUND": "CC1(C)CC=CCC1", "CLASS ASSIGNMENT": "middle bracket"}
{"COMPOUND": "O=Cc1ccoc1", "CLASS ASSIGNMENT": "middle bracket"}
{"COMPOUND": "COc1ccccn1", "CLASS ASSIGNMENT": "middle bracket"}
{"COMPOUND": "CCCCCCCCOC(=O)CCCCC", "CLASS ASSIGNMENT": "high bracket"}
{"COMPOUND": "COCCC#N", "CLASS ASSIGNMENT": "middle bracket"}
{"COMPOUND": "CCc1ccccc1-c1ccccc1", "CLASS ASSIGNMENT": "high bracket"}
{"COMPOUND": "CCC(C)C(C)O (configuration not stated)", "CLASS ASSIGNMENT": "middle bracket"}
{"COMPOUND": "CCCOCC", "CLASS ASSIGNMENT": "low bracket"}
{"COMPOUND": "O=C(O)CCCc1ccccc1", "CLASS ASSIGNMENT": "high bracket"}
{"COMPOUND": "c1ccc2ncncc2c1", "CLASS ASSIGNMENT": "high bracket"}
{"COMPOUND": "CSB(C)C", "CLASS ASSIGNMENT": "low bracket"}
{"COMPOUND": "CCCC(C)OC(C)=O (configuration not stated)", "CLASS ASSIGNMENT": "middle bracket"}
{"COMPOUND": "CC(Cl)CCCl (configuration not stated)", "CLASS ASSIGNMENT": "middle bracket"}
{"COMPOUND": "CC1=CC(=O)C[C@H](C)C1", "CLASS ASSIGNMENT": "high bracket"}
{"COMPOUND": "O=C(c1ccccc1)C(O)c1ccccc1 (racemic)", "CLASS ASSIGNMENT": "high bracket"}
{"COMPOUND": "CC(C)CI", "CLASS ASSIGNMENT": "middle bracket"}
{"COMPOUND": "C#CC(C)Cl (configuration not stated)", "CLASS ASSIGNMENT": "low bracket"}
{"COMPOUND": "CC(C)C=CC(=O)O", "CLASS ASSIGNMENT": "high bracket"}
{"COMPOUND": "O=C(O)CCCOc1ccc(Cl)cc1Cl", "CLASS ASSIGNMENT": "high bracket"}
{"COMPOUND": "FC(F)(Cl)C(Cl)Cl", "CLASS ASSIGNMENT": "low bracket"}
{"COMPOUND": "COC(=O)C(C)Cl (configuration not stated)", "CLASS ASSIGNMENT": "middle bracket"}
{"COMPOUND": "O=C(CCl)c1ccc(Cl)cc1", "CLASS ASSIGNMENT": "high bracket"}
{"COMPOUND": "c1ccc(-c2ncc[nH]2)cc1", "CLASS ASSIGNMENT": "high bracket"}
{"COMPOUND": "Nc1ccc([N+](=O)[O-])cc1[N+](=O)[O-]", "CLASS ASSIGNMENT": "high bracket"}
